# ASSAY SYSTEM: 5-HT2A receptor (Homo sapiens)
# Construct: WuXi AppTec (Hong Kong) Limited (contract laboratory that ran the assay)
# Sequence (P28223 whole entry): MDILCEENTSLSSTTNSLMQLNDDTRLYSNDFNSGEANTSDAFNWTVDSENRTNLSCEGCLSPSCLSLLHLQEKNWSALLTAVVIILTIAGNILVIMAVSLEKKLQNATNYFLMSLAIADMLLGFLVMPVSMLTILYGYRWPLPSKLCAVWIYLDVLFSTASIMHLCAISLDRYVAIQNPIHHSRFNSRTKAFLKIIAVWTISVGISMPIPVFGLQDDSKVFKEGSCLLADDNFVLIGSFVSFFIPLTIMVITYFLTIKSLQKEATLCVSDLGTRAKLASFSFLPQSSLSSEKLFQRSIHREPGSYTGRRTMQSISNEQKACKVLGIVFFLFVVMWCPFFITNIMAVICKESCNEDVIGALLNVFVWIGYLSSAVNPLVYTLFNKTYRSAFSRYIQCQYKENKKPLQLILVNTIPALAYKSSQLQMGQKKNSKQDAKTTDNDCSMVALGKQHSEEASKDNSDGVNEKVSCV
# PROCEDURE TEXT: FLIPR Ca2+ flux functional assay, antagonist activity at 5-HT2A
# Format: cell-based
RECORDED METRIC: pIC50
In plain terms, pIC50 is the concentration in mol/L turned into minus its base-10 logarithm.

Sample CC(CNC(=N)CNc1ccccc1)Oc1cccc(Cl)c1.O=CO (stereo not shown) [BW501C67, formate] ; pIC50 observed: 7.84

---

# PROCEDURE TEXT: in vivo
# Format: in vivo, rat
# CONDITION SET: male, Sprague Dawley, rat, in vivo; calculated using 10 mg/kg PK data; read-out: Free Brain:Free Plasma (0.5 h)
Kp at 0.5 h values by entry
I only need the number, thanks.

Some compounds with recorded Kp at 0.5 h:
[
  {
    "COMPOUND": "COc1cccc(C(=O)Nc2ccc(OCCN3CCOCC3)c(-c3ccnn3C)c2)c1",
    "Kp at 0.5 h": 0.34
  },
  {
    "COMPOUND": "CC(C)COc1ccc(CNC(=O)N(Cc2ccc(F)cc2)C2CCN(C(=O)CC[C@H](N)C(=O)O)CC2)cc1 [Compound 14a]",
    "Kp at 0.5 h": 0.035
  }
]

The compound listed as COc1cccc(CCc2ccccc2OCC(CN(C)C)OC(=O)CCC(=O)O)c1 (stereo not drawn) [sarpogrelate] shows Kp at 0.5 h equal to 0.29
